The entries below come with measured AC50 values attached.
- EXPERIMENTAL TARGET: Heat shock protein HSP 90-alpha (Homo sapiens)
- Format: functional, organism-based
The source made the active and inactive calls.

O=S(=O)(/C=C/c1ccccc1)NC1CCCCCCC1 ... 24.7 µM (active)
O=C(Oc1c(Cl)cc(Cl)c2cccnc12)c1ccco1 ... < 0.195 µM (active)
COC(=O)c1cc(=O)n(-c2ccc(F)cc2)/c(=N/c2ccc(F)cc2)s1 ... 8.18 µM (active)

Param item = O=C(Nc1ccccc1N1CCOCC1)c1ccc([N+](=O)[O-])o1 ; retrieve measured AC50.
3.63 µM (active)
